- MEASUREMENT NOTES: Cytotoxicity in 2.2.15 cells (uptake of neutral red dye)
- Format: cell-based
- MEASUREMENT SETUP: human, nine daily additions
ASSAY ENDPOINT: CC50 (µM)
# unit: µM | format: bare number

# input Entry under review: Nc1ncnc2c1ncn2[C@@H]1O[C@H](CO)[C@@H](O)[C@@H]1O . Reported CC50?
# output 188
